For each of the compounds below, state its CC50 at 72 h.
Method Description: Cytotoxicity against mouse J774A1 cells after 72 hrs by MTT assay
Type: cell-based, J774.A1
One number for each entry, in µM.

Use the examples below as a reference point.
CCCC/C=C/C=C/c1nc2ccc(OC)cc2n2cccc12	10
CCC/C=C/C=C/c1nc2ccccc2n2cccc12	4.7
C/C=C/C=C/c1nc2cc(OC)ccc2n2cccc12	2.5
CCCC/C=C/C=C/c1nc2cccc(OC)c2n2cccc12	6.4
CCCC/C=C/C=C/c1nc2ccccc2n2cccc12	8.8
N=C(N)c1ccc(OCCCCCOc2ccc(C(=N)N)cc2)cc1	0.56

// each listed compound needs a value for CC50 at 72 h
1. C/C=C/C=C/c1nc2cccc(OC)c2n2cccc12
2. C/C=C/C=C/c1nc2ccccc2n2cccc12

Result string:
2.7
4.3

// each listed compound needs a value for CC50 at 72 h
1. C/C=C/C=C/c1nc2ccc(OC)cc2n2cccc12
2. CCCC/C=C/C=C/c1nc2cc(OC)ccc2n2cccc12

Result string:
5.3
8

// each listed compound needs a value for CC50 at 72 h
1. C/C=C/C=C/C=C/c1nc2ccccc2n2cccc12
2. CCC/C=C/C=C/c1nc2cc(OC)ccc2n2cccc12
3. C/C=C/C=C/c1nc2ccccc2n2ccc(OCC)c12
4. CCC/C=C/C=C/c1nc2cccc(OC)c2n2cccc12
5. CCC/C=C/C=C/c1nc2ccc(OC)cc2n2cccc12

Result string:
1: 4.9; 2: 6.5; 3: 3.5; 4: 7.1; 5: 7.8

---

Method Description: Selectivity index, ratio of CC50 for mouse J774A1 cells to IC50 for Leishmania major MHOM/IL/81/BNI promastigotes
Format: functional, J774.A1
Readout: Ratio CC50/IC50
Answers are plain numbers.

CCC/C=C/C=C/c1nc2ccc(OC)cc2n2cccc12	1.1
C/C=C/C=C/c1nc2ccccc2n2cccc12	0.9

// each listed molecule needs a value for Ratio CC50/IC50
1. CCCC/C=C/C=C/c1nc2ccccc2n2cccc12
2. CCC/C=C/C=C/c1nc2cccc(OC)c2n2cccc12

Result string:
2.4
1.8

// each listed molecule needs a value for Ratio CC50/IC50
1. C/C=C/C=C/c1nc2ccccc2n2ccc(OCC)c12
2. CCC/C=C/C=C/c1nc2cc(OC)ccc2n2cccc12

Result string:
1. 2.3
2. 2.3

---

Method Description: Selectivity index, ratio of CC50 for human HepG2 cells to IC50 for Leishmania major MHOM/IL/81/BNI promastigotes
Type: functional
For each of the compounds below, state its Ratio CC50/IC50.
One number for each entry.

C/C=C/C=C/c1nc2ccc(OC)cc2n2cccc12	3.2
CCC/C=C/C=C/c1nc2ccccc2n2cccc12	2.4

// moving on: another record for Ratio CC50/IC50
Entry C/C=C/C=C/c1nc2cccc(OC)c2n2cccc12 — recorded Ratio CC50/IC50 = 2

---

Method Description: Selectivity index, ratio of CC50 for human HepG2 cells to IC50 for Leishmania major MHOM/IL/81/BNI promastigotes
Assay type: functional
// boundary case: Ratio CC50/IC50 equal to 3 maps to not fulfilled; strictly smaller maps to fulfilled

CCCC/C=C/C=C/c1nc2cccc(OC)c2n2cccc12	fulfilled
CCCC/C=C/C=C/c1nc2cc(OC)ccc2n2cccc12	not fulfilled
CCC/C=C/C=C/c1nc2cccc(OC)c2n2cccc12	not fulfilled

Query string: Is Ratio CC50/IC50 strictly under 3 for the entry N=C(N)c1ccc(OCCCCCOc2ccc(C(=N)N)cc2)cc1 ?
Result string: fulfilled

Query string: Is Ratio CC50/IC50 strictly under 3 for the entry C/C=C/C=C/c1nc2ccccc2n2cccc12 ?
Result string: fulfilled

---

Method Description: Cytotoxicity against human HepG2 cells after 72 hrs by MTT assay
Type: cell-based
Readout: CC50 at 72 h (µM)
Numbers only, in µM.

Use the examples below as a reference point.
CCC/C=C/C=C/c1nc2ccccc2n2cccc12	9.3
CCC/C=C/C=C/c1nc2ccc(OC)cc2n2cccc12	20.1
CCCC/C=C/C=C/c1nc2cc(OC)ccc2n2cccc12	18.3
C/C=C/C=C/c1nc2ccc(OC)cc2n2cccc12	8.7
C/C=C/C=C/c1nc2ccccc2n2ccc(OCC)c12	4.5
C/C=C/C=C/c1nc2cc(OC)ccc2n2cccc12	5.8
C/C=C/C=C/C=C/c1nc2ccccc2n2cccc12	10.6
CCCC/C=C/C=C/c1nc2cccc(OC)c2n2cccc12	15.8
CCCC/C=C/C=C/c1nc2ccc(OC)cc2n2cccc12	22.9
CCC/C=C/C=C/c1nc2cc(OC)ccc2n2cccc12	8.8

// each listed compound needs a value for CC50 at 72 h
1. CCC/C=C/C=C/c1nc2cccc(OC)c2n2cccc12
2. CCCC/C=C/C=C/c1nc2ccccc2n2cccc12
3. C/C=C/C=C/c1nc2cccc(OC)c2n2cccc12
4. C/C=C/C=C/c1nc2ccccc2n2cccc12

Result string:
1: 17.4; 2: 8.2; 3: 6.5; 4: 10.3

---

Method Description: Selectivity index, ratio of CC50 for human HepG2 cells to IC50 for Trypanosoma brucei brucei Antat 1.1
Type: functional
Readout: Ratio CC50/IC50
Give bare numbers.

Use the examples below as a reference point.
CCC/C=C/C=C/c1nc2cc(OC)ccc2n2cccc12	4.6
C/C=C/C=C/c1nc2cccc(OC)c2n2cccc12	2.9
C/C=C/C=C/c1nc2cc(OC)ccc2n2cccc12	2.8
N=C(N)c1ccc(OCCCCCOc2ccc(C(=N)N)cc2)cc1 [PENTAMIDINE]	46
C/C=C/C=C/c1nc2ccccc2n2cccc12	4.3
CCCC/C=C/C=C/c1nc2ccc(OC)cc2n2cccc12	17.6
CCCC/C=C/C=C/c1nc2cc(OC)ccc2n2cccc12	16.6
C/C=C/C=C/c1nc2ccc(OC)cc2n2cccc12	4.8

// moving on: another record for Ratio CC50/IC50
Entry C/C=C/C=C/C=C/c1nc2ccccc2n2cccc12 — recorded Ratio CC50/IC50 = 4.8

---

Method Description: Selectivity index, ratio of CC50 for human HepG2 cells to IC50 for Leishmania major MHOM/IL/81/BNI promastigotes
Format: functional
Readout: Ratio CC50/IC50
One number for each entry.

C/C=C/C=C/C=C/c1nc2ccccc2n2cccc12	8.8

// each listed compound needs a value for Ratio CC50/IC50
1. CCCC/C=C/C=C/c1nc2ccccc2n2cccc12
2. C/C=C/C=C/c1nc2cc(OC)ccc2n2cccc12

Result string:
1: 2.2; 2: 1.9

---

For each of the molecules below, state its Ratio CC50/IC50.
Method Description: Selectivity index, ratio of CC50 for human HepG2 cells to IC50 for Leishmania major MHOM/IL/81/BNI promastigotes
Assay type: functional
Numbers only.

CCC/C=C/C=C/c1nc2ccc(OC)cc2n2cccc12	2.7
C/C=C/C=C/c1nc2ccccc2n2ccc(OCC)c12	3
CCC/C=C/C=C/c1nc2cc(OC)ccc2n2cccc12	3.1

Entry CCCC/C=C/C=C/c1nc2ccc(OC)cc2n2cccc12 — recorded Ratio CC50/IC50 = 5.2
